test system: in vivo angiogenesis, blood vessel count; assay: reduction of blood vessel formation in vivo – HTS, in vivo study (AID 732); conditions: stronger effect = lower value;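 tested at 30 µM in the well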;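 note: zebrafish embryos dosed at one day post fertilization; 0% = reference inhibitor and 100% = plate mean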
testReadout: vessel count % control (%)
Kindly answer with a numeric value in %, unit omitted.

Form: compound = NC(=O)C(=O)O ; vessel count % control = 125

More entries:
Form: compound = CC(CCc1ccccc1)NCC(O)c1ccc(O)c(C(N)=O)c1 (centres undefined) ; vessel count % control = 89.9

Form: compound = CCC(NC(C)C)C(O)c1ccc(O)c(O)c1 (centres undefined) ; vessel count % control = 85.9

Form: compound = CC(C)c1ccc2c(c1)c(SC(C)(C)C)c(CC(C)(C)C(=O)O)n2Cc1ccc(Cl)cc1 ; vessel count % control = 99.4

* * *

test system: in vivo angiogenesis, blood vessel count; assay: reduction of blood vessel formation in vivo – HTS, in vivo study (AID 732); conditions: stronger effect = lower value;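 tested at 30 µM in the well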
# vessel count % control per entry
Kindly answer with a numeric value in %, unit omitted.

Example entries begin here.
Form: compound = CCC1(O)CC2CN(CCc3c([nH]c4ccccc34)[C@@](C(=O)OC)(c3cc4c(cc3OC)N(C=O)C3[C@]45CCN4CC=C[C@@](CC)([C@@H](OC(C)=O)[C@]3(O)C(=O)OC)[C@H]45)C2)C1 (some centres undefined) ; vessel count % control = 109

Form: compound = CCN(CC)CCCC(C)Nc1ccnc2cc(Cl)ccc12 (centres undefined) ; vessel count % control = 108

Form: compound = CN1C2CCC1CC(OC(c1ccccc1)c1ccccc1N)C2 (centres undefined) ; vessel count % control = 91.2

More entries:
Form: compound = CC(C)[C@@]1(NC(=O)[C@@H]2C=C3c4cccc5[nH]cc(c45)C[C@H]3N(C)C2)O[C@@]2(O)[C@@H]3CCCN3C(=O)[C@H](Cc3ccccc3)N2C1=O ; vessel count % control = 94

Form: compound = O=[N+]([O-])c1ccc(O[C@@H]2O[C@H](CO)[C@@H](O)[C@H](O)[C@H]2F)c([N+](=O)[O-])c1 ; vessel count % control = 99.2

* * *

test system: in vivo angiogenesis, blood vessel count; assay: reduction of blood vessel formation in vivo – HTS, in vivo study (AID 732); details: stronger effect = lower value;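 tested at 30 µM in the well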
Calls of active or inactive are those of the source. The rule behind the calls is not given here.
testReadout: vessel count % control

Form: compound = CNCCNS(=O)(=O)c1cccc2cnccc12 ; vessel count % control = 140% (inactive)

More entries:
Form: compound = C[C@@H]1O[C@@H](O[C@H]2C[C@@H](O)[C@]3(CO)[C@H]4[C@H](O)C[C@]5(C)[C@@H](C6=CC(=O)OC6)CC[C@]5(O)[C@@H]4CC[C@]3(O)C2)[C@H](O)[C@H](O)[C@H]1O ; vessel count % control = 109% (inactive)

* * *

test system: in vivo angiogenesis, blood vessel count; experiment: reduction of blood vessel formation in vivo – HTS, in vivo study (AID 732); conditions: stronger effect = lower value;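 tested at 30 µM in the well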
# vessel count % control per entry
Kindly answer with a numeric value in %, unit omitted.

Form: compound = CCSC(N)=Nc1ccc(C(F)(F)F)cc1 ; vessel count % control = 87.5

Form: compound = CCOC(=O)C1=C(C)NC(C)=C(C(=O)OC)C1c1cccc([N+](=O)[O-])c1 (configuration not stated) ; vessel count % control = 89.9

Form: compound = S=C(S)N1CCCC1 ; vessel count % control = 73.2

Form: compound = CC(C)Cn1c(=O)n(C)c(=O)c2[nH]cnc21 ; vessel count % control = 78.7

Form: compound = C[C@H]1CC2C3CCC4=CC(=O)C=C[C@]4(C)[C@@]3(Cl)[C@@H](O)C[C@]2(C)[C@@]1(O)C(=O)CO (some centres not stated) ; vessel count % control = 120

More entries:
Form: compound = CC(C)NCC(O)c1cc(O)cc(O)c1 (configuration not stated) ; vessel count % control = 91.8

Form: compound = CC(=O)N[C@@H](CS)C(=O)O ; vessel count % control = 96.5

* * *

# vessel count % control per entry
tested on: in vivo angiogenesis, blood vessel count; assay: reduction of blood vessel formation in vivo – HTS, in vivo study (AID 732); settings: stronger effect = lower value;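 tested at 30 µM in the well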;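 note: zebrafish embryos dosed at one day post fertilization; 0% = reference inhibitor and 100% = plate mean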
Kindly answer with a numeric value in %, unit omitted.

Example entries begin here.
Form: compound = C[N+]1(CCCCC[N+]2(C)CCCC2)CCCC1 ; vessel count % control = 114

Form: compound = Cc1cc(C)c(NC(=O)C[C@H](CC(=O)O)c2cccc3ccccc23)c(C(=O)N2CCC3(CCCC3)CC2)c1 ; vessel count % control = 108

Form: compound = CN1CCN2c3ccccc3Cc3ccccc3C2C1 (stereo not given) ; vessel count % control = 72.3

Form: compound = Nc1ccn([C@H]2CC[C@@H](CO)O2)c(=O)n1 ; vessel count % control = 103

Form: compound = Cn1c(=O)c2[nH]cnc2n(C)c1=O ; vessel count % control = 105

Form: compound = C=CC(N)CCC(=O)O (stereo not given) ; vessel count % control = 85.7

Form: compound = COc1cc(C=C(C#N)C#N)cc(O)c1O ; vessel count % control = 114

Form: compound = N=C(N)SCCc1cccc(CCSC(=N)N)c1 ; vessel count % control = 106

Form: compound = CCNC(=O)N1CCN(CCCC(c2ccc(F)cc2)c2ccc(F)cc2)CC1 ; vessel count % control = 83.9

Form: compound = Nc1nc(SCc2ccc([N+](=O)[O-])cc2)c2ncn([C@@H]3O[C@H](CO)[C@H](O)C3O)c2n1 (stereo not given in full) ; vessel count % control = 112

More entries:
Form: compound = Cc1o[nH]c(=O)c1CC(N)C(=O)O (stereo not given) ; vessel count % control = 104

Form: compound = COC(=O)[C@H](NC(=O)c1cc(-c2ccccc2)nc2ccccc12)c1ccccc1 ; vessel count % control = 97.2

Form: compound = CCCCCCCCCCCCCCSCC(=O)O ; vessel count % control = 93.7

Form: compound = CCCCC#Cc1nc(N)c2ncn([C@@H]3O[C@H](C(=O)NCC)[C@@H](O)[C@H]3O)c2n1 ; vessel count % control = 110

Form: compound = CCOC(=O)C1=C[C@]2(CC)CCCN3CCc4c(n1c1ccccc41)[C@@H]32 ; vessel count % control = 0

Form: compound = CNc1cc(NS(=O)(=O)c2ccc(N)cc2)nc(NC)n1 ; vessel count % control = 81.3

Form: compound = COC(=O)[C@H]1[C@H]2C[C@@H]3c4[nH]c5cc(OC)ccc5c4CCN3C[C@H]2C[C@@H](OC(=O)c2cc(OC)c(OC)c(OC)c2)[C@@H]1OC ; vessel count % control = 75.8

Form: compound = COc1ccc2c3c1O[C@H]1C(=O)CC[C@@]4(O)C(C2)N(CC2CC2)CCC314 (stereo not given in full) ; vessel count % control = 124

Form: compound = C=CC[C@H](N)C(=O)O ; vessel count % control = 111

Form: compound = C[C@H]1OC[C@@H](C[N+](C)(C)C)O1 ; vessel count % control = 115

Form: compound = CNCC[C@H](Oc1ccc(C(F)(F)F)cc1)c1ccccc1 ; vessel count % control = 98.4

* * *

# vessel count % control per entry
system: in vivo angiogenesis, blood vessel count; test: reduction of blood vessel formation in vivo – HTS, in vivo study (AID 732); conditions: stronger effect = lower value;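 tested at 30 µM in the well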;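 note: zebrafish embryos dosed at one day post fertilization; 0% = reference inhibitor and 100% = plate mean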
Kindly answer with a numeric value in %, unit omitted.

Nc1ncnc2c1ncn2C1CCCC1 tested on in vivo angiogenesis, blood vessel count gave vessel count % control: 81.5

CCN1CCC[C@H]1CNC(=O)c1cc(S(N)(=O)=O)ccc1OC tested on in vivo angiogenesis, blood vessel count gave vessel count % control: 89.7

C[C@H](Cc1ccccc1)Nc1ncnc2c1ncn2[C@@H]1O[C@H](CO)[C@H](O)C1O (stereo partly specified) tested on in vivo angiogenesis, blood vessel count gave vessel count % control: 99.9

O=C1NCN(c2ccccc2)C12CCN(CC1COc3ccccc3O1)CC2 (stereo unspecified) tested on in vivo angiogenesis, blood vessel count gave vessel count % control: 94.6

More entries:
O=C1CCc2cc(OCCCCc3nnnn3C3CCCCC3)ccc2N1 tested on in vivo angiogenesis, blood vessel count gave vessel count % control: 124

NCC1(CC(=O)O)CCCCC1 tested on in vivo angiogenesis, blood vessel count gave vessel count % control: 98.7

* * *

# vessel count % control per entry
test system: in vivo angiogenesis, blood vessel count; test: reduction of blood vessel formation in vivo – HTS, in vivo study (AID 732); settings: stronger effect = lower value;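 tested at 30 µM in the well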;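 note: zebrafish embryos dosed at one day post fertilization; 0% = reference inhibitor and 100% = plate mean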
Kindly answer with a numeric value in %, unit omitted.

Form: compound = N[C@H](C(=O)O)[C@H]1C[C@@H]1C(=O)O ; vessel count % control = 92.9

Form: compound = Cc1nc2c([nH]1)c(=O)n(C)c(=O)n2Cc1ccco1 ; vessel count % control = 93.1

Form: compound = O=NN(CCCl)C(=O)NCCCl ; vessel count % control = 96.9

Form: compound = FC(F)(F)c1cc(CO[C@H]2CCCN[C@H]2c2ccccc2)cc(C(F)(F)F)c1 ; vessel count % control = 91.5

Form: compound = C=CCN1CCC2(C)c3cc(O)ccc3CC1[C@@H]2C (stereo partly specified) ; vessel count % control = 89.5

Form: compound = COc1cc2c(c(OC)c1OC)-c1ccc(OC)c(=O)cc1[C@@H](NC(C)=O)CC2 ; vessel count % control = 116
